Values were extracted from ChEMBL document CHEMBL1129779.

Assayed system: Metabotropic glutamate receptor 1 (Homo sapiens)
Sequence (Q13255 whole entry): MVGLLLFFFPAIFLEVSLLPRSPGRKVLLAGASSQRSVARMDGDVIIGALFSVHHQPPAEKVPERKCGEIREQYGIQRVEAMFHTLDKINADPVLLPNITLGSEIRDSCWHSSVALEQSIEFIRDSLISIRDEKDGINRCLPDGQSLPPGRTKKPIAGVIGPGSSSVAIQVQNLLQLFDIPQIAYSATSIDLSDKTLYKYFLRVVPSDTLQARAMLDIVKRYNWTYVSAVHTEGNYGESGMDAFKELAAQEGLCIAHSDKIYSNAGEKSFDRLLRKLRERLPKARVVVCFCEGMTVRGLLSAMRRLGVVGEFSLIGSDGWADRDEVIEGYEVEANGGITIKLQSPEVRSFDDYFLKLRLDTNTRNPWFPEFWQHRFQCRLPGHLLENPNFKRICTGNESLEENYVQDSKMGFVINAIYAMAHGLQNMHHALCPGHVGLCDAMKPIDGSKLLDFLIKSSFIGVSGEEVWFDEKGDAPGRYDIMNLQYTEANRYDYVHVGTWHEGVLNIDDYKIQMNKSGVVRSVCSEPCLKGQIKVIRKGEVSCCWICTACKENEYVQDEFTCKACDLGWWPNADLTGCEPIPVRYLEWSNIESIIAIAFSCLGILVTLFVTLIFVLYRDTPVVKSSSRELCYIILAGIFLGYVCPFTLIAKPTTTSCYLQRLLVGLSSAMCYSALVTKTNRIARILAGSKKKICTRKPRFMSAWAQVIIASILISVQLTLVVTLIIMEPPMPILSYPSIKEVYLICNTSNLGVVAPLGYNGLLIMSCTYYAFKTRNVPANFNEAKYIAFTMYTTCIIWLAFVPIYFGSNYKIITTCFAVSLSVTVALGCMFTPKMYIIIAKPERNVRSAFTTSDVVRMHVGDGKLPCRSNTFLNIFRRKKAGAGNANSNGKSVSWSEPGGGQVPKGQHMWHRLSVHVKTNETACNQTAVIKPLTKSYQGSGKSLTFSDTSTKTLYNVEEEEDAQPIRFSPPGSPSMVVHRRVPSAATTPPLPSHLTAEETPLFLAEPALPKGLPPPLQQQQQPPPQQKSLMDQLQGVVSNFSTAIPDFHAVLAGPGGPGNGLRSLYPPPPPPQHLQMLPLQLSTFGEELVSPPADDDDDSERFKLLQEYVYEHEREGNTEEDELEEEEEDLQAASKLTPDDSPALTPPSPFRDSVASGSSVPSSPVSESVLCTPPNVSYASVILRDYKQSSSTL
Protocol: Compound was tested for inhibition of glutamate-evoked (10 uM) [Ca2+] mobilization in mGluR1-alpha expressed-CHO cells.
Format: cell-based
Parameter measured: IC50 (µM)
Reply with just the number (in µM).

Sample records with IC50:
{"Compound": "NC(C(=O)O)c1ccc(C(=O)O)c(O)c1 (stereo not given)", "Unit abbrev": "µM", "IC50": 200}
{"Compound": "CCOC(=O)C12CC1/C(=N\\O)c1ccccc1O2 (stereo not given)", "Unit abbrev": "µM", "IC50": 23}
{"Compound": "CC(N)(C(=O)O)c1ccc(C(=O)O)cc1 (stereo not given)", "Unit abbrev": "µM", "IC50": 700}

Query string: # return recorded IC50 for input CN(C(=O)C12CC1/C(=N\O)c1ccccc1O2)c1ccccc1 (stereo not given)
Result string: 10

Query string: Tell me IC50 reported for O=C(Nc1ccccc1)C12CC1/C(=N\O)c1ccccc1O2 (stereo not given)
Result string: 3
